Test system: HPPD polypeptides
Test: coupled HPPD activity assay: turnover and residual turnover in crude extracts
Assay type: biochemical, Pseudomonas fluorescens
Conditions: absence of Cmpd. 1; high substrate concentration; kinetic changes in absorbance (OD) at 320 nm, 30 min
OBSERVABLE: Turnover
Lab note: write the figure by itself, no unit.

molecule 19 (protein, mutant HPPD polypeptide) MADLYENPMGLMGFEFIEFASPTPGTLEPIFEIMGFTKVATHRSKNVHLYRQGEINLILNNEPNSIASYFAAEHGPSVCGMAFRVKDSQKAYNRALELGAQPIHIDTGPMELNLPAIKGIGGAPLYLIDRFGEGSSIYDIDFVYLEGVERNPVGAGLKVIDHLTHNVYRGRMVYWANFYEKLFNFREARYFDIKGEYTGLTSKAMSAPDGMIRIPLNEESSKGAGQIEEFLMQFNGEGIQHVAFLTDDLVKTWDALKKIGMRFMTAPRDEYYEMLEGRLPDHGEPVDQLQARGILLDGSSVEGDKRLLLQIFSETLMGPVFFEFIQRKGDDGFGPDSFKVLFESVERDQVRRGVLTAD , Turnover observed: 0.141
